target: IRF5; conditions: ASO, KARPAS-229, 4 µM
After the bases stand the sugars from the 5' end (letter, count) and the backbone: PS all phosphorothioate, else s phosphorothioate and o phosphodiester by linkage. Methylation of C is not given here. e = 2'-O-(2-methoxyethyl) (MOE); k = constrained ethyl (cEt); d = 2'-deoxy (DNA)
metric: target mRNA inhibition

chain-sequence	experimental-target	metric	measured-result
TGAGTCATGGGCTGAG (sugars kkdddddddddkekek, PS)	IRF5	target mRNA inhibition	0%
CAATTTTGCATTCCAT (sugars kddddddddddkekek, PS)	IRF5	target mRNA inhibition	21%
CACCACTGTGTACCCC (sugars kkddddddddkekekk, PS)	IRF5	target mRNA inhibition	0%
ACCCAATGCAACATCC (sugars k3 d10 k3, PS)	IRF5	target mRNA inhibition	33%
TCTTGTCTAGTGTCAT (sugars k3 d10 k3, PS)	IRF5	target mRNA inhibition	0%
TGATTCCAATTTTGCA (sugars k3 d10 k3, PS)	IRF5	target mRNA inhibition	17%
AGTCATGGGCTGAGGC (sugars kddddddddddkekek, PS)	IRF5	target mRNA inhibition	25%
AATGCAACATCCATCA (sugars k3 d10 k3, PS)	IRF5	target mRNA inhibition	0%
GAAGTGAGTCTCAAAC (sugars kdddddddddkekeke, PS)	IRF5	target mRNA inhibition	11%
GCATTCCATATACACA (sugars kkkdddddddddkeke, PS)	IRF5	target mRNA inhibition	45%
CACTGACACAGGCGGA (sugars kkkddddddddkekek, PS)	IRF5	target mRNA inhibition	0%
